// reported normalized growth per item
- assay: chemical genetic growth profiling, strain panel (AID 1159580);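 further: tested at 20 µM; growth read once vehicle control cultures reached saturation at 30 °C; 1 = growth at the plate median or of vehicle wells; lower values mean less growth of the strain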
- measurement.context: S. cerevisiae deletion strains, growth OD, locus YNL298W, strain CLA4 (second series), active compounds read low
About 2,000 (36%) of roughly 5,500 compounds were called active. About 18% were inconclusive and are not listed. This is one part of the list.
Form: value (number only, do not type unit).

If you can, please state the reported normalized growth value of COC(=O)Cc1nc(NC(=O)c2ccccc2)sc1C .
1.02

# lookup: normalized growth of COc1ccc(-c2c(C(=O)O)sc(SC)c2C#N)cc1
1

Given the entry N#CC(C#N)=CNc1cc(C(F)(F)F)ccc1N1CCCCC1 , report its measured normalized growth.
1

New cases:
Reported normalized growth, compound S=c1[nH]nc(-c2ccco2)n1-c1ccc2c(c1)OCCO2 : ____
1.01

Which normalized growth value is on record for CCOC(=O)c1c(Nc2ccccc2)sc([N+](=O)[O-])c1N ?
0.917

What does the record list as normalized growth for O=S(=O)(c1ccc(Cl)c(Cl)c1)N1CCN(c2ccc(C(F)(F)F)cn2)CC1 ?
1.04

* * *

- assay: chemical genetic growth profiling, strain panel (AID 1159580)
- measurement.context: S. cerevisiae deletion strains, growth OD, locus YLR342W, strain FKS1, active compounds read low
Hit rate of the full screen: of about 5,500 compounds, about 2,000 (36%) were called active. Not shown: some 18% with an inconclusive outcome. The list shows a part of the results.
observed.property: normalized growth
In your answer, state the number alone without any accompanying words.

Observe how each entry below is paired with its result.
Quick one: normalized growth for CN1Cc2c(N)cccc2C(c2ccccc2)C1 (stereo not drawn) ?
1.01

Requested read-out: normalized growth. Entry: CC1(C)S[C@@H]2[C@H](NC(=O)COc3ccccc3)C(=O)N2[C@H]1C(=O)O
0.975

Query (molecule): CN1CCN(C(c2ccccc2)c2ccccc2)CC1 ; field requested: normalized growth
0.991

Field request: normalized growth | item: NCCS
0.969

Please give the measured normalized growth for this molecule: Cc1c(N(C)CS(=O)(=O)O)c(=O)n(-c2ccccc2)n1C
1.02

Next:
Query: normalized growth; subject: C[C@]12C=CC(=O)C=C1CCC1C2CC[C@]2(C)C(=O)CCC12 (stereo partly drawn)
0.976

Fill blank: measured normalized growth of the molecule Cc1cccc(N(C)C(=S)Oc2ccc3ccccc3c2)c1 is ____.
1.01

Please look up its normalized growth: COc1ccc(Cc2nccc3cc(OC)c(OC)cc23)cc1OC
1.01

* * *

- assay: chemical genetic growth profiling, strain panel (AID 1159580);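 further: tested at 20 µM; growth read once vehicle control cultures reached saturation at 30 °C; 1 = growth at the plate median or of vehicle wells; lower values mean less growth of the strain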
- measurement.context: S. cerevisiae deletion strains, growth OD, locus YNL322C, strain KRE1, active compounds read low
Among all 5,500 compounds or so, about 2,000 (36%) were called active. Roughly 18% stayed inconclusive and do not appear here. This is one part of the list.
The following compounds are shown together with reported normalized growth values.
The reply should be a number, written without any unit.

Please give the measured normalized growth for this compound: O=C1OC(=O)C2C3CCC(O3)C12 (stereo not given)
1.02

Endpoint output: normalized growth of NC(=S)c1ccc2nonc2c1 . Value?
0.996

Need normalized growth, item Cc1nccc2c1[nH]c1ccccc12
1.01

Return reported normalized growth; argument: CCOC(=N)c1ccc(F)c(Cl)c1
1.01

Consider the compound shown here: CCCCC/C=C\C/C=C\C/C=C\C/C=C\CCCC(=O)O What is its recorded normalized growth?
0.986

State the recorded normalized growth for this entry: Oc1ccc(C2CNCc3sccc32)cc1O (stereo not given)
0.892

Report normalized growth for CCSC(SCC)[C@H](O)[C@@H](O)[C@H](O)CO please.
0.985

Please report the recorded normalized growth for Cc1cccc(N(C)C(=S)Oc2ccc3ccccc3c2)c1 .
0.982

Entry O=C(c1ccc(Cl)cc1)N1CCN(c2ccc(C(F)(F)F)cn2)CC1 has what normalized growth?
0.982

Any idea what normalized growth was measured for C[N+](C)(C)CC#CCN1CCCC1=O ?
1

* * *

- assay: chemical genetic growth profiling, strain panel (AID 1159580);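 further: tested at 20 µM; growth read once vehicle control cultures reached saturation at 30 °C; 1 = growth at the plate median or of vehicle wells; lower values mean less growth of the strain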
- measurement.context: S. cerevisiae deletion strains, growth OD, locus YHR094C, strain hxt1, active compounds read low
Hit rate of the full screen: of about 5,500 compounds, about 2,000 (36%) were called active. Roughly 18% stayed inconclusive and do not appear here. The list shows a part of the results.
observed.property: normalized growth
The answer should be written as a number, with no unit following it.

Past entries and their recorded results:
What value of normalized growth has been reported for the following compound? COc1cc(OC)c2c(c1Cl)OC1(C2=O)C(O)=CC(=O)CC1C (stereo not given)
0.983

For COC(=O)C[C@H]1C(C)(C)C(OC(C)=O)[C@]2(O)C=C3C4CC(=O)O[C@@H](c5ccoc5)[C@]4(C)CCC3[C@@]1(C)C2=O (stereo not given in full) , what is its reported normalized growth?
1.01

Please look up its normalized growth: O=c1n(CCCN2CCN(c3cccc(Cl)c3)CC2)nc2ccccn12
0.99

Returns the measured normalized growth for the input compound. Input: C[N+]1(C)C2CC[C@H]1CC(OC(=O)C(O)c1ccccc1)C2 (stereo not given in full)
1.01

# lookup: normalized growth of C=C(C)c1cc2cc(C(C)=O)c(O)cc2o1
0.917

---
Requested field: normalized growth. Item: Cc1cccc(N(C)C(=S)Oc2ccc3ccccc3c2)c1
0.981

Quick check: normalized growth of COc1cc(O)c(C(=O)c2ccccc2)c(OC)c1 ?
0.986

State the recorded normalized growth for this entry: CC(C(=O)O)c1ccc(N2Cc3ccccc3C2=O)cc1 (stereo not given)
0.987

What value of normalized growth has been recorded for this entry: COc1cc2ccc(=O)oc2c(O)c1O
0.987

Quick one: normalized growth for C/C=C(\C)C(=O)OC1[C@@H]2C=C3C4CC(=O)O[C@@H](c5ccoc5)[C@]4(C)CCC3[C@@](C)(C2=O)[C@@H](C(O)C(=O)OC)C1(C)C (stereo not given in full) ?
1.03

Can you share its normalized growth? I mean this compound: OCCN1CCN(CCCN2c3ccccc3Sc3ccc(Cl)cc32)CC1
0.992

Query (compound): CC(C)CCCC(C)C1CCC2C3CCC4CC(=O)CCC4(C)C3CCC12C (stereo not given) ; field requested: normalized growth
1.04

Tell me the measured normalized growth of C[C@]12CCC3C(CC[C@H]4C[C@@H](O)CC[C@]34C)C1CCC2=O (stereo not given in full) , please.
1.03

Consider the compound shown here: CC(C)=CCOc1cc2oc(=O)ccc2cc1O What is its recorded normalized growth?
0.97

Find the recorded normalized growth belonging to O=c1[nH]c2ccccc2n1C1CCN(CCCC(c2ccc(F)cc2)c2ccc(F)cc2)CC1 and report it.
0.995

Which normalized growth reading was recorded for the compound CC1(C)C[C@@H]2C(=O)CC[C@H]3O[C@]3(C)CC[C@H]21 ?
0.998

Fill in the blank: the reported normalized growth of CC(=O)N[C@@H](CC(=O)O)C(=O)O is ____.
1.01

Entry C[C@]12C=CC(=O)C=C1CCC1C2CC[C@]2(C)C(=O)CCC12 (stereo not given in full) : reported normalized growth = ?
0.981

* * *

The entries below are paired with their reported normalized growth.
- assay: chemical genetic growth profiling, strain panel (AID 1159580);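 further: tested at 20 µM; growth read once vehicle control cultures reached saturation at 30 °C; 1 = growth at the plate median or of vehicle wells; lower values mean less growth of the strain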
- measurement.context: S. cerevisiae deletion strains, growth OD, locus YDL005C, strain med2, active compounds read low
Among all 5,500 compounds or so, about 2,000 (36%) were called active. About 18% were inconclusive and are not listed. The list shows a part of the results.
# output: bare number, no unit

Consider the reported normalized growth for these molecules:
Which normalized growth value belongs to O=c1[nH]cnc2nc[nH]c12 ?
1.02

# get_value(readout='normalized growth', item= CC1=C(C(=O)O)N2C(=O)[C@@H](NC(=O)[C@H](N)C3=CCC=CC3)C2SC1 (some centres undefined) )
1.03

Field request: normalized growth | item: C[N+]1(C)CCc2cc3c(cc2[C@H]1C1OC(=O)c2c1ccc1c2OCO1)OCO3 (some centres undefined)
1

Dear colleague, I am looking for the recorded normalized growth of the following molecule: CC(C)=CCOc1c2occc2cc2ccc(=O)oc12
0.947

Form field: reported normalized growth of COc1cc(O)c(C)c(O)c1
1.01

Record request: normalized growth value, item O=C1OC(=O)C2C3CCC(O3)C12 (centres undefined)
1.01

---
Request the reported normalized growth associated with C[C@]12C=CC(=O)C=C1CCC1C2C(=O)C[C@@]2(C)C1CC[C@]2(O)C(=O)CO (some centres undefined)
0.981

For CC(=O)OCC(=O)[C@@]1(O)CCC2C3CCC4=CC(=O)CC[C@]4(C)[C@@]3(F)[C@@H](O)C[C@@]21C (some centres undefined) , what is its reported normalized growth?
1.02

Item under review: CCC(=O)O[C@H]1CCC2C3CCc4cc(O)ccc4C3CC[C@@]21C (some centres undefined) . Reported normalized growth?
0.966

Field request: normalized growth | item: Fc1ccc(C(c2ccc(F)cc2)N2CCN(C/C=C/c3ccccc3)CC2)cc1
0.263

Which normalized growth value belongs to CC(=O)Oc1ccc2c(c1)CCC1C2CCC2(C)C1CC(OC(C)=O)C2OC(C)=O (centres undefined) ?
0.987

Please give the measured normalized growth for this molecule: CCCCC(=O)O[C@H]1CCC2C3CCc4cc(O)ccc4C3CC[C@@]21C (some centres undefined)
1.01
